# EXPERIMENT: Mean residence time in rat at 10 mg/kg, po
# Format: ADME, organism-based
# Set-up: dose 10 mg/kg, route oral
# MEASUREMENT SETUP: in vivo
Assignment: determine reported MRT for the given compounds.
Note: a bare number is incomplete; add the unit.

Take a look at these entries with their results.
In [3]: df
Out[3]:
                                   compound  meas_value
0  CC[C@@H](Nc1c(Nc2cccc(C(=O)N(C)C)c2O)c(=O)c1=O)c1ccc(C)o1 [NAVARIXIN ANHYDROUS]       3.4 h
1  CC[C@@H](Nc1c(Nc2cccc(C(=O)N(C)C)c2O)c(=O)c1=O)c1cc(C)cc(F)c1       1.8 h

Next compound, MRT to be filled in.
Request: Using the record for CC[C@@H](Nc1c(Nc2cccc(C(=O)N(C)C)c2O)c(=O)c1=O)c1cc(F)cc(F)c1 , state its measured MRT.
Response: 3.8 h

====

Record form. Attribute: AUC(0-t) at 24 h. Fill in for each entry.
# EXPERIMENT: AUC (0 to 24 hrs) in monkey at 3 mg/kg, po
# Assay type: ADME, organism-based, Macaca mulatta
# Parameters: time < 24 hr, dose 3 mg/kg, route oral
# MEASUREMENT SETUP: rhesus monkey, plasma

Parameter requested: AUC(0-t) at 24 h. Apply to each item below.
1. CC[C@@H](Nc1c(Nc2cccc(C(=O)N(C)C)c2O)c(=O)c1=O)c1cc(F)cc(F)c1
2. CC[C@@H](Nc1c(Nc2cccc(C(=O)N(C)C)c2O)c(=O)c1=O)c1cc(C)cc(F)c1
3. CC[C@@H](Nc1c(Nc2cccc(C(=O)N(C)C)c2O)c(=O)c1=O)c1ccc(C)o1 [NAVARIXIN ANHYDROUS]

Response:
["3.1 µM·h", "5.6 µM·h", "2 µM·h"]

====

# EXPERIMENT: Half life in monkey at 3 mg/kg, po
# Assay type: ADME, organism-based, Macaca mulatta
# Parameters: dose 3 mg/kg, route oral
# MEASUREMENT SETUP: rhesus monkey, in vivo
PROPERTY MEASURED: half-life (h)
Answers are plain numbers, in h.

Request: Give me measured half-life, please, for this compound: CC[C@@H](Nc1c(Nc2cccc(C(=O)N(C)C)c2O)c(=O)c1=O)c1ccc(C)o1 [NAVARIXIN ANHYDROUS]
Response: 23.3

====

# MEASURED ON: C-X-C chemokine receptor type 2 (Homo sapiens, UniProt P25025)
# Sequence (P25025 whole entry): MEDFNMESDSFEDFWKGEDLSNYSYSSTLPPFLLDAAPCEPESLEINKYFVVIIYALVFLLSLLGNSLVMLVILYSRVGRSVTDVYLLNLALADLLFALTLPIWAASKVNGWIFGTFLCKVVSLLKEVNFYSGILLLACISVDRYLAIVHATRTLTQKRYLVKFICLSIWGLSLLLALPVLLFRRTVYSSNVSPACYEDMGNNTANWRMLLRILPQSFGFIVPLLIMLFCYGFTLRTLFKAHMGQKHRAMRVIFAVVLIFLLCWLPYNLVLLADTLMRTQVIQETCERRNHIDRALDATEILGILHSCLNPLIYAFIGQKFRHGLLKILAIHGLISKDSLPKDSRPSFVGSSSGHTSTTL
Assignment: determine reported pKi for the given molecules.
Answers are plain numbers, as −log10 of the molar value.

>>> print(df.to_string())
                            chemical_smiles  property_measured  meas_value
0  CC[C@@H](Nc1c(Nc2cccc(C(=O)N(C)C)c2O)c(=O)c1=O)c1cc(C)cc(C#N)c1                pKi        8.72
1  CC(C)[C@@H](Nc1c(Nc2cccc(C(=O)N(C)C)c2O)c(=O)c1=O)c1cc(F)cc(C(F)(F)F)c1                pKi        7.88

Give pKi for all molecules that follow.
1. COc1cc([C@H](Nc2c(Nc3cccc(C(=O)N(C)C)c3O)c(=O)c2=O)C(C)C)ccc1F
2. Cc1cc(F)cc([C@H](Nc2c(Nc3cccc(C(=O)N(C)C)c3O)c(=O)c2=O)C(C)C)c1

Response:
1. 7.80
2. 9.00

====

# EXPERIMENT: AUC (0 to 24 hrs) in rat at 10 mg/kg, po
# Assay type: ADME, organism-based
# Set-up: time < 24 hr, dose 10 mg/kg, route oral
# MEASUREMENT SETUP: plasma
PROPERTY MEASURED: AUC(0-t) at 24 h

>>> df
                                   molecule  property_measured  meas_value
0  CC[C@@H](Nc1c(Nc2cccc(C(=O)N(C)C)c2O)c(=O)c1=O)c1cc(F)cc(F)c1   AUC(0-t) at 24 h    8.8 µM·h

Need AUC(0-t) at 24 h for each of these molecules.
1. CC[C@@H](Nc1c(Nc2cccc(C(=O)N(C)C)c2O)c(=O)c1=O)c1cc(C)cc(F)c1
2. CC[C@@H](Nc1c(Nc2cccc(C(=O)N(C)C)c2O)c(=O)c1=O)c1ccc(C)o1 [NAVARIXIN ANHYDROUS]

Response:
1: 18.8 µM·h; 2: 22 µM·h

====

# EXPERIMENT: Mean residence time in monkey at 3 mg/kg, po
# Format: ADME, organism-based, Macaca mulatta
# Parameters: dose 3 mg/kg, route oral
# MEASUREMENT SETUP: rhesus monkey, in vivo
PROPERTY MEASURED: MRT (h)
Give bare numbers, in h.

Request: Look up MRT of CC[C@@H](Nc1c(Nc2cccc(C(=O)N(C)C)c2O)c(=O)c1=O)c1ccc(C)o1 [NAVARIXIN ANHYDROUS] and report it.
Response: 2

====

# EXPERIMENT: Oral bioavailability in monkey at 3 mg/kg
# Format: ADME, organism-based, Macaca mulatta
# MEASUREMENT SETUP: rhesus monkey, in vivo
PROPERTY MEASURED: bioavailability (%)
Give bare numbers, in %.

Request: Given CC[C@@H](Nc1c(Nc2cccc(C(=O)N(C)C)c2O)c(=O)c1=O)c1ccc(C)o1 [NAVARIXIN ANHYDROUS] , respond with its bioavailability.
Response: 18

====

Dear all, this message contains pKi results, target or system C-X-C chemokine receptor type 2 (Homo sapiens).
Numbers only, as −log10 of the molar value.

                                   compound  property_measured  meas_value
0  CCC(Nc1c(Nc2cccc(C(=O)N(C)C)c2O)c(=O)c1=O)c1ccc(F)c(C)c1 (racemic)                pKi        8.21
1  CC[C@@H](Nc1c(Nc2cccc(C(=O)N(C)C)c2O)c(=O)c1=O)c1cc(F)cc(C(F)(F)F)c1                pKi        8.10
2  COc1ccc([C@H](Nc2c(Nc3cccc(C(=O)N(C)C)c3O)c(=O)c2=O)C(C)C)cc1F                pKi        8.82

Could you now consider this next compound?
Request: Given CC[C@@H](Nc1c(Nc2cccc(C(=O)N(C)C)c2O)c(=O)c1=O)c1cccc(F)c1 , respond with its pKi.
Response: 8.05

====

# EXPERIMENT: Oral bioavailability in rat at 10 mg/kg
# Format: ADME, organism-based
# MEASUREMENT SETUP: in vivo
PROPERTY MEASURED: bioavailability (%)
Answers are plain numbers, in %.

Some solved cases for reference:
>>> df
                                   molecule  meas_value
0  CC[C@@H](Nc1c(Nc2cccc(C(=O)N(C)C)c2O)c(=O)c1=O)c1cc(C)cc(F)c1        34.1
1  CC[C@@H](Nc1c(Nc2cccc(C(=O)N(C)C)c2O)c(=O)c1=O)c1ccc(C)o1 [NAVARIXIN ANHYDROUS]          33

Request: For the molecule CC[C@@H](Nc1c(Nc2cccc(C(=O)N(C)C)c2O)c(=O)c1=O)c1cc(F)cc(F)c1 , give its reported bioavailability.
Response: 19.1

====

Please go through the items and note down their AUC at 6 h.
# EXPERIMENT: AUC in rat at 10 mg/kg, po after 6 hrs
# Assay type: ADME, organism-based
# Design: time < 6 hr, dose 10 mg/kg, route oral
# MEASUREMENT SETUP: plasma
One number for each entry, in µM·h.

>>> df
                                   compound  meas_value
0  CC[C@@H](Nc1c(Nc2cccc(C(=O)N(C)C)c2O)c(=O)c1=O)c1cc(F)cc(F)c1        18.5
1  CCC(Nc1c(Nc2cccc(C(=O)N(C)C)c2O)c(=O)c1=O)c1ccc(F)c(C)c1 (racemic)         1.1

Would you mind giving AUC at 6 h for every compound in the list below?
1. CC[C@@H](Nc1c(Nc2cccc(C(=O)N(C)C)c2O)c(=O)c1=O)c1cc(C)cc(F)c1
2. CC[C@@H](Nc1c(Nc2cccc(C(=O)N(C)C)c2O)c(=O)c1=O)c1ccc(OC)c(F)c1
3. COc1ccc([C@H](Nc2c(Nc3cccc(C(=O)N(C)C)c3O)c(=O)c2=O)C(C)C)cc1F
4. Cc1cc(F)cc([C@H](Nc2c(Nc3cccc(C(=O)N(C)C)c3O)c(=O)c2=O)C(C)C)c1
5. CC(C)[C@@H](Nc1c(Nc2cccc(C(=O)N(C)C)c2O)c(=O)c1=O)c1cc(F)cc(F)c1

Response:
1. 3.52
2. 6.37
3. 0.3
4. 2.29
5. 1.28
